B1: 2K2A (parent)
chain: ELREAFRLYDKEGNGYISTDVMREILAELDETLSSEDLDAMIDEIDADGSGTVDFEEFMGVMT

- Variants of: B1
- method-notes: folding stability dG (cDNA display proteolysis); higher = more stable
- run-parameters: PBS, room temperature
Assign folding stability dG to each entry below.
Your answer should be a plain number; it is taken to be in kcal/mol.

Exercise: Give reported folding stability dG value for G49T
Key: 0.928

Exercise: Give reported folding stability dG value for D30W
Key: 2.22

Exercise: Give reported folding stability dG value for D48T
Key: 1.6

Exercise: Give reported folding stability dG value for Y9I
Key: 1.31

Exercise: Give reported folding stability dG value for L38P
Key: -0.322

Exercise: Give reported folding stability dG value for F55H
Key: 0.24

Exercise: Give reported folding stability dG value for A27S
Key: 1.87

Exercise: Give reported folding stability dG value for E24F
Key: 2.32

Exercise: Give reported folding stability dG value for T63C
Key: 2.18

Exercise: Give reported folding stability dG value for D30T
Key: 1.3

Exercise: Give reported folding stability dG value for M59H
Key: 1.2
